B1: TPR t1 (parent)
chain: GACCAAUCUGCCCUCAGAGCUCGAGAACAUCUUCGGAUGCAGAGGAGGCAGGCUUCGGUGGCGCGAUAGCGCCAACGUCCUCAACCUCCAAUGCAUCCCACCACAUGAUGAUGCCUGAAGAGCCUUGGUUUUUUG

variants of: B1; assay: polymerase ribozyme fitness, log enrichment relative to wild type (log ratio); higher = more active; in vitro selection for triplet polymerase activity
Property name: polymerase ribozyme fitness (log ratio)
Number only, please.

Which measured polymerase ribozyme fitness (log ratio) value corresponds to A68G C97A ?
-7.14

Which measured polymerase ribozyme fitness (log ratio) value corresponds to G60U G120A C124A ?
1.48

Which measured polymerase ribozyme fitness (log ratio) value corresponds to G36U G71C ?
-1.92

Which measured polymerase ribozyme fitness (log ratio) value corresponds to A27U G71U C94A ?
-4.88

Which measured polymerase ribozyme fitness (log ratio) value corresponds to C20A G48U C70A U78G G113A G117C ?
-7.02

Which measured polymerase ribozyme fitness (log ratio) value corresponds to U21C G61C ?
-2.11

Which measured polymerase ribozyme fitness (log ratio) value corresponds to C12U G52A G63C U112A G120A ?
-0.326

Which measured polymerase ribozyme fitness (log ratio) value corresponds to A27U C53A C72U ?
-3.4

Which measured polymerase ribozyme fitness (log ratio) value corresponds to A5G C72A ?
0.0113

Which measured polymerase ribozyme fitness (log ratio) value corresponds to A74U A121U C124A ?
1.47

Which measured polymerase ribozyme fitness (log ratio) value corresponds to C8A C76U U87A U112A A121C U133G ?
0.984

Which measured polymerase ribozyme fitness (log ratio) value corresponds to A41U G65U ?
-6

Which measured polymerase ribozyme fitness (log ratio) value corresponds to C53U C62G C70U G110A ?
-6.1

Which measured polymerase ribozyme fitness (log ratio) value corresponds to C20A C62G A66C C104G U116C C123G G128U ?
-6.82

Which measured polymerase ribozyme fitness (log ratio) value corresponds to U59A G93U ?
-0.878

Which measured polymerase ribozyme fitness (log ratio) value corresponds to G69U U78A A91U A111C ?
-0.0328

Which measured polymerase ribozyme fitness (log ratio) value corresponds to C53A G110U ?
-1.02

Which measured polymerase ribozyme fitness (log ratio) value corresponds to U38G C72U C104U ?
-1.14

Which measured polymerase ribozyme fitness (log ratio) value corresponds to C70U G128C ?
-2.54

Which measured polymerase ribozyme fitness (log ratio) value corresponds to G63C C86A A118G ?
-2.3

Which measured polymerase ribozyme fitness (log ratio) value corresponds to C49A A91C G127A ?
-3.35

Which measured polymerase ribozyme fitness (log ratio) value corresponds to G44U G107A ?
-6.9

Which measured polymerase ribozyme fitness (log ratio) value corresponds to U30G C102G U112G ?
-7.15

Which measured polymerase ribozyme fitness (log ratio) value corresponds to G44A G71C ?
-2.21

Which measured polymerase ribozyme fitness (log ratio) value corresponds to C3G U112A ?
-0.0942

Which measured polymerase ribozyme fitness (log ratio) value corresponds to A2C G10U A37C C64U U112C ?
-1.73

Which measured polymerase ribozyme fitness (log ratio) value corresponds to G17A C49A G58A G110C ?
-6.79

Which measured polymerase ribozyme fitness (log ratio) value corresponds to A75U C97A ?
-5.53

Which measured polymerase ribozyme fitness (log ratio) value corresponds to U21A C49G C62A G113C ?
-4.99

Which measured polymerase ribozyme fitness (log ratio) value corresponds to C11A C73U ?
-1.2
